Experiment: Half life in rat at 0.5 mg/kg, iv
Type: ADME, organism-based
Design: dose 0.5 mg/kg, route intravenous
Conditions: in vivo
recordedMetric: half-life (h)
Supply the numeric figure in h, leaving out any unit text.

Recorded result, COc1ccc(F)c(-c2ccc(COc3cccc([C@@H](CC(=O)O)C4CC4)c3)cc2C2=CCCC2(C)C)c1 , half-life: 1.8

---

Assay: Half life in cynomolgus monkey at 0.5 mg/kg, iv
Assay type: ADME, organism-based, Macaca fascicularis
Parameters: dose 0.5 mg/kg, route intravenous
Conditions: in vivo
recordedMetric: half-life (h)
Supply the numeric figure in h, leaving out any unit text.

Recorded result, COc1ccc(F)c(-c2ccc(COc3cccc([C@@H](CC(=O)O)C4CC4)c3)cc2C2=CCCC2(C)C)c1 , half-life: 2.1

Value source: ChEMBL document CHEMBL2150898
